Every entry's value here was drawn from paper PMC11351550.

For each of the compounds below, state its CUPRAC Eq Trolox.
assay: CUPRAC (CUPric-Reducing Antioxidant Capacity) assay; format: biochemical; settings: 30 min, 450 nm
Just the number in Eq Trolox, nothing appended.

// recorded CUPRAC Eq Trolox for Cc1ccc(-c2nc(-c3nc(-c4ccc(O)c(O)c4)cs3)cs2)cc1 [Compound 3j] : 1.61

// recorded CUPRAC Eq Trolox for Oc1ccc(-c2csc(-c3ccccc3)n2)cc1O [Compound 3b] : 2.27

// recorded CUPRAC Eq Trolox for Oc1ccc(-c2csc(-c3csc(-c4ccccc4)n3)n2)cc1O [Compound 3i] : 1.84

// recorded CUPRAC Eq Trolox for Oc1ccc(-c2csc(-c3ccncc3)n2)cc1O [Compound 3g] : 3.60

// recorded CUPRAC Eq Trolox for Oc1ccc(-c2csc(-c3ccc(Cl)cc3)n2)cc1O [Compound 3c] : 2.38

// recorded CUPRAC Eq Trolox for Oc1ccc(-c2csc(-c3ccccn3)n2)cc1O [Compound 3h] : 2.13

// recorded CUPRAC Eq Trolox for Cc1cccc(-c2nc(-c3ccc(O)c(O)c3)cs2)c1 [Compound 3e] : 3.13

// recorded CUPRAC Eq Trolox for Oc1ccc(-c2csc(-c3ccc(Br)cc3)n2)cc1O [Compound 3d] : 2.62

// recorded CUPRAC Eq Trolox for COc1cc(-c2nc(-c3ccc(O)c(O)c3)cs2)cc(OC)c1OC [Compound 3f] : 3.05

// recorded CUPRAC Eq Trolox for Cc1nc(-c2ccc(O)c(O)c2)cs1 [Compound 3a] : 3.17

* * *

assay: Reducing power (RP) assay; type: biochemical; conditions: 50 °C, 20 min, pH 6.6
For each of the molecules below, state its RP Eq Trolox.
Just the number in Eq Trolox, nothing appended.

// recorded RP Eq Trolox for Cc1ccc(-c2nc(-c3nc(-c4ccc(O)c(O)c4)cs3)cs2)cc1 [Compound 3j] : 1.50

// recorded RP Eq Trolox for Cc1cccc(-c2nc(-c3ccc(O)c(O)c3)cs2)c1 [Compound 3e] : 1.37

// recorded RP Eq Trolox for Oc1ccc(-c2csc(-c3ccccn3)n2)cc1O [Compound 3h] : 1.71

// recorded RP Eq Trolox for Oc1ccc(-c2csc(-c3ccc(Br)cc3)n2)cc1O [Compound 3d] : 1.35

// recorded RP Eq Trolox for Oc1ccc(-c2csc(-c3ccccc3)n2)cc1O [Compound 3b] : 1.33

// recorded RP Eq Trolox for Oc1ccc(-c2csc(-c3ccncc3)n2)cc1O [Compound 3g] : 1.69

// recorded RP Eq Trolox for Oc1ccc(-c2csc(-c3csc(-c4ccccc4)n3)n2)cc1O [Compound 3i] : 1.35

// recorded RP Eq Trolox for COc1cc(-c2nc(-c3ccc(O)c(O)c3)cs2)cc(OC)c1OC [Compound 3f] : 1.46

// recorded RP Eq Trolox for Oc1ccc(-c2csc(-c3ccc(Cl)cc3)n2)cc1O [Compound 3c] : 1.22

// recorded RP Eq Trolox for Cc1nc(-c2ccc(O)c(O)c2)cs1 [Compound 3a] : 1.44

* * *

Test: Ferric-Reducing Antioxidant Potential (FRAP) assay
Type: biochemical
Details: pH 3.6, 593 nm
Procedure: The stock solutions of the reference antioxidants (ascorbic acid, Trolox, EDTA-Na2) and compounds 3a–j were prepared by dissolving the solid powders in DMSO, obtaining 2 mM stock solutions. Following this, an additional set of solutions (0.2 mM) for each compound was obtained by dilution with DMSO. Absorption spectra of the tested compounds covering the range from 400 nm to 800 nm were recorded, indicating no absorption peaks near the wavelengths employed in the experiments. […]
For each of the compounds below, state its FRAP Eq Trolox.
Just the number in Eq Trolox, nothing appended.

// recorded FRAP Eq Trolox for `Oc1ccc(-c2csc(-c3ccc(Br)cc3)n2)cc1O` : 1.09

// recorded FRAP Eq Trolox for `Oc1ccc(-c2csc(-c3ccccn3)n2)cc1O` : 1.03

// recorded FRAP Eq Trolox for `Cc1ccc(-c2nc(-c3nc(-c4ccc(O)c(O)c4)cs3)cs2)cc1` : 1.06

// recorded FRAP Eq Trolox for `COc1cc(-c2nc(-c3ccc(O)c(O)c3)cs2)cc(OC)c1OC` : 1.06

// recorded FRAP Eq Trolox for `Oc1ccc(-c2csc(-c3ccncc3)n2)cc1O` : 1.63

// recorded FRAP Eq Trolox for `Cc1cccc(-c2nc(-c3ccc(O)c(O)c3)cs2)c1` : 1.07

// recorded FRAP Eq Trolox for `Oc1ccc(-c2csc(-c3ccc(Cl)cc3)n2)cc1O` : 1.10

// recorded FRAP Eq Trolox for `Oc1ccc(-c2csc(-c3csc(-c4ccccc4)n3)n2)cc1O` : 1.14

// recorded FRAP Eq Trolox for `Cc1nc(-c2ccc(O)c(O)c2)cs1` : 0.95

// recorded FRAP Eq Trolox for `Oc1ccc(-c2csc(-c3ccccc3)n2)cc1O` : 1.07
